# Tested on: CP305
# procedure.summary: qHTS profiling for inhibitors of Plasmodium falciparum proliferation (AID 504749); also: nearly all actives have a fitted effect of over 60% in size
# condition.description: P. falciparum in erythrocytes, SYBR Green DNA, 72 h; series mostly up to 28.7 µM
Results filed as inconclusive are left out. Calls of active or inactive are those of the source. Calls follow the shape of the dose curve; as a rule, active = well fitted inhibition curve with a large enough effect; inconclusive = small, poorly fitted or top-dose-only effect; inactive = flat fitted curve, though single readings scatter.
Outcome codes: active, inactive

compound	assigned.category
CCN(CC)CCOC(=O)C(c1ccccc1)C1CCCCC1 (stereo unspecified)	inactive
c1ccc(OCc2ccc(CCCN3CCOCC3)cc2)cc1	inactive
CCOc1ccc2nc3cc(N)ccc3c(N)c2c1	active
N[C@@H](Cc1cnc[nH]1)C(=O)O	inactive
CCCCCCCCCCCCCCCCCC(=O)OCC(O)CO (stereo unspecified)	inactive
N[C@H](CO)C(=O)O	inactive
Cc1c(C(N)=O)cc([N+](=O)[O-])cc1[N+](=O)[O-]	inactive
COc1cccc(CCc2ccccc2OCC(CN(C)C)OC(=O)CCC(=O)O)c1 (stereo unspecified)	active
O=C(Nc1ccc(Oc2ccc(Cl)cc2)c(Cl)c1)c1cc(I)cc(I)c1O	inactive
Cc1ccc(O)c2ncccc12	inactive
COc1cc(C(=S)N2CCOCC2)cc(OC)c1OC	inactive
CCCCOc1ccc(OCCCN2CCOCC2)cc1	inactive
Cc1cc(=O)n(-c2ccccc2)n1C	inactive
CCCCCCCCCCCCCCCC[N+](C)(C)CC	active
COc1ccc(CCN2CCC(Nc3nc4ccccc4n3Cc3ccc(F)cc3)CC2)cc1	active
CCN1CCC[C@H]1CNC(=O)c1c(OC)ccc(Br)c1OC	inactive
CCCCCCC[N+](CC)(CC)CCCCc1ccc(Cl)cc1	active
NCCc1ccn[nH]1	inactive
O=C(O)CNC(=O)c1ccccc1	inactive
C[C@H]1C[C@H]2[C@@H]3CCC4=CC(=O)C=C[C@]4(C)[C@@]3(Cl)[C@@H](O)C[C@]2(C)[C@@]1(O)C(=O)CO	inactive
COc1cc(NS(C)(=O)=O)ccc1Nc1c2ccccc2nc2ccccc12	active

----------
# reported max response; entries follow
# Test system: NIH3T3
# procedure.summary: Cytotoxic Profiling of Annotated Libraries Using Quantitative High-Throughput Screening (AID 1296008); also: % is scaled to controls: 0 for no effect and ±100 for the full control effect; nearly all actives have a fitted effect of over 60% in size
# condition.description: Five cell lines viability, CellTiter-Glo ATP luminescence, 48-72 h; active compounds read low
# Experimental: Cell-based phenotypic screening is a commonly used approach to discover biological pathways, novel drug targets, chemical probes and high-quality hit-to-lead molecules. […] A pintool (Kalypsys) was used to transfer 23 nL of compound solution to the 1536-well assay plates. […] Plates were left at room temperature for 10 min before imaging the ATP-coupled luminescence using a ViewLux microplate imager (PerkinElmer, Waltham, MA).
Results filed as inconclusive are left out. Calls of active or inactive are those of the source. Calls follow the shape of the dose curve; as a rule, active = well fitted inhibition curve with a large enough effect; inconclusive = small, poorly fitted or top-dose-only effect; inactive = flat fitted curve, though single readings scatter.

compound	assayed.system	max response
Cc1ccc(C(=O)C(C)CN2CCCCC2)cc1 (stereo not drawn)	NIH3T3	-4.42% (inactive)
CCOC(=O)[C@H](CCc1ccccc1)N[C@@H](C)C(=O)N1Cc2ccccc2C[C@H]1C(=O)O	NIH3T3	-19.6% (inactive)
CN1CCC(=C2c3ccccc3Sc3ccccc32)CC1	NIH3T3	-14.3% (inactive)
CCCCN1CCCC1C(=O)Nc1c(C)cc(C)cc1C (stereo not drawn)	NIH3T3	-4.8% (inactive)
CN=C(NC#N)Nc1ccc(C2=NNC(=O)CC2C)cc1 (stereo not drawn)	NIH3T3	-5.93% (inactive)
Cc1cc(N)c2cc(NC(=O)Nc3ccc4nc(C)cc(N)c4c3)ccc2n1	NIH3T3	-1.27% (inactive)
C[C@@H](CN(C)C)CN1c2ccccc2Sc2ccccc21	NIH3T3	-1.51% (inactive)
CN(C)CC/C=C1\c2ccccc2Sc2ccc(Cl)cc21	NIH3T3	-4.42% (inactive)

----------
# assayed.system: Calcium and integrin-binding protein 1 (Homo sapiens) (UniProt Q99828)
# Sequence (Q99828 whole entry, looked up): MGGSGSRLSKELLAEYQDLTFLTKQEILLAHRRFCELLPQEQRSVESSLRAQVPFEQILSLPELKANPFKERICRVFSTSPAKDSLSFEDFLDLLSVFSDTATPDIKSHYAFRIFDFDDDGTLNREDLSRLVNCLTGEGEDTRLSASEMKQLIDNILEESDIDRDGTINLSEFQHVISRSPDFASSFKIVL
# procedure.summary: Primary qHTS for Identification of Calcium Integrin Binding Protein 1 (CIB1) Competitor (AID 1508620);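 also: GST tagged CIB1 binding a fluorescein labelled alphaIIb integrin peptide tracer; top concentration of the series differs between compounds; % is scaled to controls: 0 for no effect and ±100 for the full control effect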
# condition.description: CIB1-GST / FITC-alphaIIb peptide fluorescence polarization; series mostly up to 114 µM
Records with an inconclusive call do not appear. Calls of active or inactive are those of the source. The call rests on the fitted dose curve; in most records, active means well fitted inhibition curve with a large enough effect; inconclusive means small, poorly fitted or top-dose-only effect; inactive means flat fitted curve, though single readings scatter.

compound	outcome
O=C(N/N=C/c1ccccc1O)c1ccncc1	inactive
CC(Cc1cccc(C(F)(F)F)c1)NCCOC(=O)c1ccccc1 (centres undefined)	inactive
C[C@]12CCC(=O)C=C1CC[C@H]1[C@@H]3CC[C@](O)(C(=O)CO)[C@@]3(C)C[C@H](O)[C@@]12F	inactive
O=C(CCN1CCC(c2ccccc2)C1)c1ccc2c(c1)OCCO2 (centres undefined)	inactive
NC(=O)CC[C@@H]1NC(=O)[C@H](Cc2ccccc2)NC(=O)[C@H](Cc2ccc(O)cc2)NC(=O)CCSSC[C@@H](C(=O)N2CCC[C@H]2C(=O)N[C@@H](CCCN=C(N)N)C(=O)NCC(N)=O)NC(=O)[C@H](CC(N)=O)NC1=O	inactive
c1ccc(-c2ccc(C(c3ccccc3)n3ccnc3)cc2)cc1 (centres undefined)	inactive
CCCCOc1ccc(C(=O)CCN2CCCCC2)cc1	inactive
N[C@H](Cc1c[nH]c2ccccc12)C(=O)O	inactive
CCCC(=O)Nc1ccc(OCC(O)CNC(C)C)c(C(C)=O)c1 (centres undefined)	inactive

----------
# procedure.summary: Cell Viability - LYMP2-007 (AID 979)
# condition.description: LYMP2-007 lymphoblastoid cell viability; series mostly up to 92.2 µM
Results filed as inconclusive are left out. The source made the active and inactive calls. The call rests on the fitted dose curve; in most records, active means well fitted cell-killing curve with a large enough effect; inconclusive means small, poorly fitted or top-dose-only effect; inactive means flat fitted curve, though single readings scatter.
Outcome codes: true = active, false = inactive

compound	assigned.category
Nc1ccc(C(=O)O)cc1	false
O=C(O)CCCCC(=O)O	false
CC(O)C(=O)O (centres undefined)	false
COc1cccc2c1C(=O)c1c(O)c3c(c(O)c1C2=O)C[C@@](O)(C(=O)CO)C[C@@H]3O[C@H]1C[C@H](N)[C@H](O)[C@H](C)O1	true

----------
# Test system: TAB113
# procedure.summary: qHTS profiling for inhibitors of Plasmodium falciparum proliferation (AID 504749); also: nearly all actives have a fitted effect of over 60% in size
# condition.description: P. falciparum in erythrocytes, SYBR Green DNA, 72 h; series mostly up to 28.7 µM
Results filed as inconclusive are left out. The source made the active and inactive calls. Calls follow the shape of the dose curve; as a rule, active = well fitted inhibition curve with a large enough effect; inconclusive = small, poorly fitted or top-dose-only effect; inactive = flat fitted curve, though single readings scatter.
Outcome codes: active, inactive

molecule	assayed.system	assigned.category
CCCCOc1cc(C(=O)NCCN(CC)CC)c2ccccc2n1	TAB113	inactive
Cc1cccc(C)c1NC(=O)CN1CCN(CCCC(c2ccc(F)cc2)c2ccc(F)cc2)CC1	TAB113	inactive
Cc1c(C)n(CCN(C)C)c2ccc(C(=O)OCCN(C)C)cc12	TAB113	inactive
CC(C)(CO)[C@@H](O)C(=O)NCCCO	TAB113	inactive
CCN(CC)C(=O)N1CCN(C)CC1	TAB113	inactive
CCCCCCc1ccc(O)cc1O	TAB113	inactive
CC(C)(C)CC(C)(C)c1ccc(O)c(Cc2ccc(Cl)cc2Cl)c1	TAB113	active
CN(C(=O)CN(CCO)CC(=O)N(C)C(C)(C)Cc1ccccc1)C(C)(C)Cc1ccccc1	TAB113	inactive
CNCCC(Oc1ccccc1C)c1ccccc1 (stereo not drawn)	TAB113	inactive
C=C(CC)C(=O)c1ccc(OCC(=O)O)c(Cl)c1Cl	TAB113	active
CC(=O)Nc1c(I)cc(I)c(C(=O)O)c1I	TAB113	inactive
C[C@]12CC[C@@H]3c4ccc(O)cc4CC[C@H]3[C@@H]1CC[C@@H]2O	TAB113	inactive
COC(=O)[C@@H]1CC2=CC(=O)CC[C@]2(C)[C@@]23O[C@@H]2C[C@@]2(C)[C@@H](CC[C@@]24CCC(=O)O4)[C@H]13	TAB113	inactive

----------
# Tested on: CP286
# procedure.summary: qHTS profiling for inhibitors of Plasmodium falciparum proliferation (AID 504749); also: nearly all actives have a fitted effect of over 60% in size
# condition.description: P. falciparum in erythrocytes, SYBR Green DNA, 72 h; series mostly up to 28.7 µM
Inconclusive results are not listed. Active and inactive are the calls of the source. Calls come from the whole dose curve; as a rule, active = well fitted inhibition curve with a large enough effect; inconclusive = small, poorly fitted or top-dose-only effect; inactive = flat fitted curve, though single readings scatter.
Outcome codes: true (1) (active), false (0) (inactive)

molecule	assigned.category
COc1ccc(C2C(=O)c3ccccc3C2=O)cc1	false (0)
O=c1c(-c2ccccc2)c1-c1ccccc1	true (1)
CNCCC(Oc1ccccc1C)c1ccccc1 (stereo not given)	false (0)
COc1cc(NS(C)(=O)=O)ccc1Nc1c2ccccc2nc2ccccc12	true (1)
NCCCC[C@H](N[C@@H](CCc1ccccc1)C(=O)O)C(=O)N1CCC[C@H]1C(=O)O	false (0)

----------
# procedure.summary: Cell Viability - SK-N-SH (AID 435);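 also: potency is read from the fitted curve at half-maximal effect; compound exposure lasted 40 h at 37 °C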
# condition.description: SK-N-SH neuroblastoma cell viability qHTS
Records with an inconclusive call do not appear. Activity calls are given as the source filed them. Calls follow the shape of the full dose curve.

molecule	Potency
CC(O)C(=O)O (stereo not drawn)	> 92 µM (inactive)
O=C(O)CCCCC(=O)O	> 92 µM (inactive)
C=CCc1ccc(O)c(OC)c1	> 92 µM (inactive)

----------
# System: MKL-1
# procedure.summary: qHTS assay to identify novel small-molecules to repurpose for Merkel cell carcinoma treatment (AID 1296009); also: nearly all actives have a fitted effect of over 60% in size
# condition.description: MCC and control cell lines, CellTiter-Glo viability, 72 h; series mostly up to 46 µM
Inconclusive results are not listed. Activity calls are given as the source filed them. Calls follow the shape of the dose curve; as a rule, active = well fitted inhibition curve with a large enough effect; inconclusive = small, poorly fitted or top-dose-only effect; inactive = flat fitted curve, though single readings scatter.
Outcome codes: active, inactive

compound	assigned.category
O=C(Nc1ccc(Cl)c(Cl)c1)C1CC1	inactive
O=c1[nH]c(=O)n([C@H]2CCCO2)cc1F	inactive
CC(=O)CC(c1ccc([N+](=O)[O-])cc1)c1c(O)c2ccccc2oc1=O (stereo not given)	inactive
CC(C)COC(=O)c1ccc(N)cc1	inactive
Nc1ccc(C(=O)O)cc1	inactive
CN1[C@@H]2CC[C@H]1CC(OC(=O)c1c[nH]c3ccccc13)C2 (stereo not given in full)	inactive
CCCCCCc1ccc(O)cc1O	inactive
COc1cc2c(cc1OC)[C@@H]1CC(=O)[C@@H](CC(C)C)CN1CC2	inactive
CCN(CCCc1ccccc1)CCCc1ccccc1	inactive
CCCOC(C(=O)OC1CCN(C)CC1)(c1ccccc1)c1ccccc1	inactive
CN(C)/N=N/c1nc[nH]c1C(N)=O	inactive
C[C@H](CCC(=O)O)[C@H]1CC[C@H]2[C@@H]3C(=O)C[C@@H]4CC(=O)CC[C@]4(C)[C@H]3CC(=O)[C@]12C	inactive
O=C1OC(c2ccc(O)cc2)(c2ccc(O)cc2)c2ccccc21	inactive
COc1ccc(OC)c(C(O)CNC(=O)CN)c1 (stereo not given)	inactive
CC(O)(P(=O)(O)O)P(=O)(O)O	inactive
C/C=C(/C(=C/C)c1ccc(O)cc1)c1ccc(O)cc1	inactive
O=c1c(-c2ccccc2)c1-c1ccccc1	active
CC(=O)[C@H]1CC[C@H]2[C@@H]3C[C@H](C)C4=CC(=O)CC[C@]4(C)[C@H]3[C@@H](O)C[C@]12C	inactive
NC(=O)c1cc[n+](CC2=C(C(=O)[O-])N3C(=O)[C@@H](NC(=O)Cc4cccs4)[C@H]3SC2)cc1	inactive
CC(=O)OCC(=O)NCCCOc1cccc(CN2CCCCC2)c1	inactive
CNC(=O)CN(CCN(CCN(CC(=O)[O-])CC(=O)NC)CC(=O)[O-])CC(=O)[O-].O.[Gd+3]	inactive
CC1=C(C(=O)OC(C)C)C(c2cccc([N+](=O)[O-])c2)C(C(=O)OC2CN(C(c3ccccc3)c3ccccc3)C2)=C(N)N1 (stereo not given)	active
O=C1OC2(c3ccc(O)cc3Oc3cc(O)ccc32)c2ccccc21	inactive
CC(=O)c1ccc2c(c1)N(CCCN1CCC(CCO)CC1)c1ccccc1S2	inactive
COc1ccc(C2C(=O)c3ccccc3C2=O)cc1	inactive
O=C1c2ccccc2C(=O)C1c1ccccc1	inactive
COc1c2occc2c(OC)c2c(=O)cc(C)oc12	inactive
CN(C)CC/C=C1/c2ccccc2COc2ccc(CC(=O)O)cc21	inactive
CC(=O)OCC(=O)[C@@]1(O)[C@H](C)C[C@H]2[C@@H]3CCC4=CC(=O)C=C[C@]4(C)[C@@]3(F)[C@@H](O)C[C@@]21C	inactive
COc1cc(C=C2CCC/C(=C\c3ccc(O)c(OC)c3)C2=O)ccc1O	active

The reported measurements were obtained from PubChem BioAssay (NCATS).
